# target_under_test: T1, SNTG1, Q9NSN8
# T1 sequence (Q9NSN8 52-150, limits assumed, looked up): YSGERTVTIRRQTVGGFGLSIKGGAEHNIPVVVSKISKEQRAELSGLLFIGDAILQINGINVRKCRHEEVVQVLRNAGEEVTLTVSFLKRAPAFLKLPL
# protocol_details: holdup assay
# Design: key: below the threshold = too weak to quantify, mostly under pKd 3.1 to 4
# reported_conditions: plain residues with an end cap or a label only (N-terminal biotin on a linker: ado-ado)
readout: pKd

As a guide, the following entries are already answered.
1. DLLGGGSDSI [TNRC6B, Q9UPQ9] = below the threshold
2. WAKEKQHTRL [SLC17A1, Q14916] = below the threshold
3. MQILSKPEFI [NPSR1, Q6W5P4] = below the threshold
4. EPAKETTTNV [SLC2A3, P11169] = 4.06

For the binder IKLETKKTKL [SLC15A2, Q16348] , what pKd is on record?
3.64

For the binder KLQNPNQSVV [TYRP1, P17643] , what pKd is on record?
3.47

For the binder PALKNGQYWV [CSPG4, Q6UVK1] , what pKd is on record?
below the threshold

For the binder TKDKVQETQI [LRRC4, Q9HBW1] , what pKd is on record?
4.97
